# Assayed System: Prostaglandin G/H synthase 1 (Ovis aries)
# Sequence (whole entry): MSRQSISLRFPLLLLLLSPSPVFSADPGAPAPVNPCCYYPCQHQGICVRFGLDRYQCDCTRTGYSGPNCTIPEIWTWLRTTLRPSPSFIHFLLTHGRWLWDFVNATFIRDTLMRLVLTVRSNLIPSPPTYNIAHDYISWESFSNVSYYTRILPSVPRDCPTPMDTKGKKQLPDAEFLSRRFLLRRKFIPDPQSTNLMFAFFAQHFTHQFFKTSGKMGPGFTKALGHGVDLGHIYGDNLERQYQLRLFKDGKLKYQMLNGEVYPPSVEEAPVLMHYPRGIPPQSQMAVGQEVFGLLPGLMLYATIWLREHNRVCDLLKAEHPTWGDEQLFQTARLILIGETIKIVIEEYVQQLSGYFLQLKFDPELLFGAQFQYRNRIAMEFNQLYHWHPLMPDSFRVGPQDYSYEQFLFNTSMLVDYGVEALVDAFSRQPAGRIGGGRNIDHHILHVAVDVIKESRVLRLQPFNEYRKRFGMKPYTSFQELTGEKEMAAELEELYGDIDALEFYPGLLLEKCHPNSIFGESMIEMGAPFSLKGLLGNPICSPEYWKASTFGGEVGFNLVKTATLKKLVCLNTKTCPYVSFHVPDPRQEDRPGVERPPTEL
# Procedure Text: […] at ovine COX-1 at 10 uM relative to control
# Design: scale not given: the % may be the effect or the level left
Quantity Kind: Activity

| Item Smiles | Activity |
| --- | --- |
| O=C(O)Cn1c2c(c3ccccc31)CN(C(=O)c1cccc3ccccc13)CC2 | < 30% |
| Cc1ccc2c3c(n(CC(=O)O)c2c1)CCN(C(=O)c1ccccc1)C3 | < 30% |
| O=C(O)Cn1c2c(c3cc(Cl)ccc31)CN(C(=O)c1ccccc1)CC2 | < 30% |
| Cc1ccc2c(c1)c1c(n2CC(=O)O)CCN(C(=O)c2ccccc2)C1 | < 30% |

Challenge: Look up Activity: `O=C(O)Cn1c2c(c3cc(F)ccc31)CN(C(=O)c1cccs1)CC2`
Response given: < 30%

Challenge: Look up Activity: `O=C(O)Cn1c2c(c3cc(F)cc(Cl)c31)CN(C(=O)c1cccc(Cl)c1)CC2`
Response given: < 30%

Challenge: Look up Activity: `CCc1ccc(-c2ccc(C(=O)N3CCc4c(c5ccccc5n4CC(=O)O)C3)cc2)cc1`
Response given: < 30%

Challenge: Look up Activity: `O=C(O)Cn1c2c(c3cc(F)ccc31)CN(C(=O)Cc1c[nH]c3ccccc13)CC2`
Response given: < 30%

Challenge: Look up Activity: `O=C(O)Cn1c2c(c3cc(F)ccc31)CN(C(=O)CCc1cccc3ccccc13)CC2`
Response given: < 30%
